Biological target: T1, biotinylated p53β peptide (human, also: biotinylated, site not given here)
T1 construct: also called biotinylated p53-aggregating peptide
T1 peptide: ILTIITL
Assay: peptide-binding assay: peptide spots on membrane, biotinylated p53β peptide, streptavidin-HRP
Where no end group is shown, it is not given here.
// Coaggregation (peptide binding) lookup, one value per entry
Express your answer in %, writing the number without its unit.

Here is how some binders turned out for Coaggregation (peptide binding).
ILTILTE (spot-synthesized on membrane; also called caspase-8 (CASP8) segment; position Nr 11) [CASP8_HUMAN peptide ILTILTE]
11.4
ILTIVSL (spot-synthesized on membrane; also called position Nr 4) [DHX33_HUMAN peptide ILTIVSL]
10.2
ILIIITL (spot-synthesized on membrane; also called p73β; position Nr 35) [P73_HUMAN peptide ILIIITL]
99

Now take the following binder into account.
Request: # lookup: Coaggregation (peptide binding) of ILSIDTL (spot-synthesized on membrane; also called position Nr 54) [SPEF2_HUMAN peptide ILSIDTL]
Response: 79.6
